Biological target: Aldehyde dehydrogenase 1A1 (Homo sapiens) (UniProt P00352)
Sequence (P00352 whole entry, looked up): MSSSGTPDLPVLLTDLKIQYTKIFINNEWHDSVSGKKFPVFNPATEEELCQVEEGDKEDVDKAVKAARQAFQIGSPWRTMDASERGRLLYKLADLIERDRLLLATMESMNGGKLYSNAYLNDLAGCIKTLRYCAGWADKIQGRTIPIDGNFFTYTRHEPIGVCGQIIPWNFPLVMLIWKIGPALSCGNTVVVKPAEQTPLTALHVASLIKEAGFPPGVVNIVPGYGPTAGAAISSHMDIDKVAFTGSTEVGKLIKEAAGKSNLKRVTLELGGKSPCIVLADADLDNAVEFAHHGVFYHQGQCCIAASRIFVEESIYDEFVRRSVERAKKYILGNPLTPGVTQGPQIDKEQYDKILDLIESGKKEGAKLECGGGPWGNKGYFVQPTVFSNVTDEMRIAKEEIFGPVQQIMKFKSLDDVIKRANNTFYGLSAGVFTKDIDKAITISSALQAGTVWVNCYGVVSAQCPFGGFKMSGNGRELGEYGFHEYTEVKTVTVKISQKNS
Assay: qHTS Assay for Inhibitors of Aldehyde Dehydrogenase 1 (ALDH1A1); note: potency is the fitted concentration of half-maximal effect
Details: Purified ALDH1A1, NADH fluorescence, propionaldehyde substrate; series mostly up to 75.3 µM
The campaign covered roughly 220,000 compounds. About 16,000 (7.3%) were called active. Not shown: some 25% with an inconclusive outcome. The entries come from a sample that favours actives as a whole.
Measure Name: Potency

CCOC(=O)c1c(-c2ccccc2)csc1NC(=S)NC(=O)c1ccccc1 ... inactive
CCC(=O)Nc1ccc(Nc2nc(Cl)nc(Nc3ccc(NC(=O)CC)cc3)n2)cc1 ... inactive
CCC(=O)Nc1cc(C(F)(F)F)ccc1N1CCCC1 ... inactive
Cc1ccc(-c2cc(=O)c3ccc(F)cc3[nH]2)cc1 ... inactive
O=C(/C=C/c1cccs1)NCc1cccnc1 ... inactive
O=C(O)C(c1ccccc1)C1(O)CCCCC1 (stereo not given) ... inactive
Cc1c(O)cc(O)c2c(=O)c(-c3ccc(O)cc3)coc12 ... 25.1 µM (active)
CCCOc1ccc(C2c3c(oc4cc(C)c(C)cc4c3=O)C(=O)N2CCCN2CCOCC2)cc1 (stereo not given) ... 3.98 µM (active)
O=C(O)CCCCOn1ccnc1 ... inactive
O=C(Nc1ccccc1Cc1ccccc1)c1ccc2c(c1)SC1=NS(=O)(=O)CCN12 ... 7.94 µM (active)
CCOC(=O)c1c(NC(=O)C2(C)Cc3ccccc3C(=O)O2)sc2c1CCCC2 (stereo not given) ... inactive
Cc1ccccc1CS(=O)(=O)CC1(O)CCN(C(=O)c2cccc(C(F)(F)F)c2)CC1 ... inactive
O=C(NCc1cccnc1)c1cn(-c2ccccc2)nc1-c1cccs1 ... 3.98 µM (active)
CCC(C)(C)NC(=O)C(c1ccccn1)N(C(=O)c1csnn1)c1ccccc1 (stereo not given) ... inactive
O=C1/C(=C\c2cccnc2)CN(Cc2ccccc2)C/C1=C\c1cccnc1 ... 7.94 µM (active)
CCn1cc(-c2cc(C(=O)O)on2)c(C)n1 ... inactive
Fc1ccccc1Cn1cnc(NC(=S)NCCc2ccccc2)n1 ... inactive
O=C(c1cn2ccccc2n1)N1CCc2c([nH]c3ccccc23)C1c1ccccn1 (stereo not given) ... inactive
COc1ccc(S(=O)(=O)N(C)CC(=O)N2CCCC2)cc1Cl ... inactive
OC(COc1cccc(OCC(O)CN2CCCC2)c1)CN1CCCC1 (stereo not given) ... inactive
CC(C)CCN1CCN(Cc2ccc(C(F)(F)F)cc2)CC1CCO (stereo not given) ... inactive
Cc1c(Br)c([N+](=O)[O-])nn1CC(=O)Nc1sc2c(c1C(=O)OC(C)C)CCC(C)C2 (stereo not given) ... inactive
Cc1ccc(C)c(Cn2cnc3c(oc4ccccc43)c2=O)c1 ... inactive
O=S(=O)(c1cccs1)N1CCN(Cc2ccccc2)CC1 ... inactive
O=C(c1cccc(F)c1)N1CCC2(CC1)CCN(c1ccccc1)CC2 ... inactive
Cc1cccc(N2CC(C)Cn3c2nc2c3c(=O)n(CC(=O)OCc3ccccc3)c(=O)n2C)c1 (stereo not given) ... inactive
O=C(NCC1COc2ccccc2O1)C1(c2ccccc2)CCCC1 (stereo not given) ... inactive
COc1ccc2c(CC(=O)OCC(=O)NC(N)=O)coc2c1 ... inactive
O=C(Nc1ccccc1N1CCN(c2ccccc2)CC1)c1cccc(F)c1 ... inactive
Cc1ccc(C2CCN(C(=S)Nc3cccc(Cl)c3)C2)cc1 (stereo not given) ... inactive
CN1CCN(C(CNS(=O)(=O)c2cccs2)c2cccnc2)CC1 (stereo not given) ... inactive
OC(CNCc1ccc(Cl)c(Cl)c1)c1ccccc1 (stereo not given) ... inactive
Cc1oc2cc([N+](=O)[O-])c(O)c([N+](=O)[O-])c2c1C(=O)c1ccc(Br)cc1 ... inactive
OC(COCCC12CC3CC(CC(C3)C1)C2)CN1CCCCC1 (stereo not given) ... 20 µM (active)
NC(=O)Cn1nc([N+](=O)[O-])nc1Oc1ccc(Br)cc1 ... inactive
O=C1N/C(=N\N=C\c2ccco2)SC1Cc1ccc(F)cc1 (stereo not given) ... inactive
O=C(CN1CCN(C(=O)c2cccc(F)c2)CC1)Nc1ccccc1F ... 12.6 µM (active)
Cc1ccc(CN2CCN(Cc3ccccc3-c3ccco3)CC2CCO)o1 (stereo not given) ... inactive
Clc1ccc(CN2CCN(/N=C/c3cccnc3)CC2)cc1 ... inactive
O=C(NNC(=S)NCCCN1CCOCC1)c1ccncc1 ... inactive
COc1ccc2c(CN3CCN(S(=O)(=O)c4cccs4)CC3)cc(=O)oc2c1 ... 14.1 µM (active)
C/[N+]([O-])=C\c1ccc([N+](=O)[O-])o1 ... inactive
CCOC(=O)C1=C(NC(=S)NC(=O)c2ccccc2)c2ccccc2CC1(C)C ... 20 µM (active)
N/C(=N\S(=O)(=O)c1cc(C(F)(F)F)cc(C(F)(F)F)c1)c1cccs1 ... inactive
NS(=O)(=O)c1ccc(CCNC(=O)c2ccc([N+](=O)[O-])cc2[N+](=O)[O-])cc1 ... inactive

* * *

Target: Aldehyde dehydrogenase 1A1 (Homo sapiens) (UniProt P00352)
Experiment: qHTS Assay for Inhibitors of Aldehyde Dehydrogenase 1 (ALDH1A1)
Settings: Purified ALDH1A1, NADH fluorescence, propionaldehyde substrate; series mostly up to 75.3 µM
Screen size: about 220,000 compounds; about 16,000 (7.3%) were called active. Inconclusive results (about 25%) are left out. Calls come from the whole dose curve; as a rule, active = well fitted inhibition curve with a large enough effect (not every such curve was filed as active); inconclusive = small, poorly fitted or top-dose-only effect, or another doubt; inactive = no such curve, though single readings can be large or run the other way. Shown is part of a subset that was picked to be rich in actives.
Possible outcomes: active, inactive

CC(NC(=O)CC1SC(N)=NC1=O)c1ccccc1 (configuration not stated) ... inactive
COc1ccc(CCNC(=O)c2cc3sccc3n2C)cc1OC ... inactive
Cc1cccc(CSc2nnc(C)c(=O)n2N)c1 ... inactive
CCOc1ccc(CCNC(=O)C(CC)n2nc(C)n3c(cc4sccc43)c2=O)cc1OCC (configuration not stated) ... active
COc1ccc(/C=C/NC(=O)c2ccc(OC)cc2)cc1 ... active
O=C1CCC(=O)N1c1ccc(NCCc2ccccc2F)c([N+](=O)[O-])c1 ... inactive
CCC1CO/C(=C(\C(=C(Cl)Cl)N2CCOCC2)[N+](=O)[O-])N1 (configuration not stated) ... inactive
Cc1nccc(-c2ccc(-n3c(C)ccc3C)cc2)n1 ... inactive
Cn1nnnc1-c1cc(Cl)cc(Cl)c1 ... inactive
CCOCCCNC(=O)C(NC(=O)Cc1c[nH]c2ccccc12)c1ccc(OC)cc1 (configuration not stated) ... inactive
Cc1n[nH]c(=O)n1-c1ccc(C(C)C)cc1 ... inactive
O=C(/C=C/Sc1ncn[nH]1)c1ccc(Cl)cc1 ... active

* * *

Target: Aldehyde dehydrogenase 1A1 (Homo sapiens)
Experiment: qHTS Assay for Inhibitors of Aldehyde Dehydrogenase 1 (ALDH1A1)
Conditions: Purified ALDH1A1, NADH fluorescence, propionaldehyde substrate; series mostly up to 75.3 µM
The whole screen tested about 220,000 compounds, of which about 16,000 (7.3%) were called active. About 25% were inconclusive and are not listed. Calls come from the whole dose curve; as a rule, active = well fitted inhibition curve with a large enough effect (not every such curve was filed as active); inconclusive = small, poorly fitted or top-dose-only effect, or another doubt; inactive = no such curve, though single readings can be large or run the other way. Only a selection was taken, and actives are over-represented in it overall.
Possible outcomes: active, inactive

COc1cc(C2/C(=C(\O)c3ccc4c(c3)CC(C)O4)C(=O)C(=O)N2Cc2ccco2)ccc1O (stereo not given) ... inactive
COCCCN1C(=O)C(=O)/C(=C(/O)c2ccc3c(c2)CC(C)O3)C1c1cccnc1 (stereo not given) ... active
O=C1N=C(N2CCCC2)S/C1=C\c1cccc(Br)c1 ... active
Nc1ccc(S(=O)(=O)Nc2nccc(/C=C/c3ccc(Br)s3)n2)cc1 ... inactive
NC(=O)C1=C[C@H](c2csc3ccccc23)C[C@H](OCc2ccc(CO)cc2)O1 ... active
CCCCCCCCCCCCCCCCO ... inactive
CCc1nnc(NC(=O)CCCSc2nc3ccccc3[nH]2)s1 ... inactive
Cc1nn(-c2ccccc2)c(=O)c2noc(C)c12 ... inactive
Cc1ccc(-n2nc3cc(Cl)c(NC(=O)c4ccco4)cc3n2)cc1 ... inactive
Cc1c(C(=O)NCc2ccccc2)cnn1-c1ccccc1 ... inactive
CCN1CCN(CC(=O)c2cc(OC)c(OC)c(OC)c2)CC1 ... active
COc1ccccc1C(=O)Nc1ccc(NC(=O)c2ccco2)c(C)c1 ... active
CC(=O)c1ccc(NC(=O)CSC(=S)N2CCCC2)cc1 ... inactive
COc1cc(C(F)(F)F)c(C(=O)N(C)c2ccc(Cl)cc2)cn1 ... inactive
CCOc1cccc(/C(O)=C2/C(=O)C(=O)N(CCOC)C2c2ccncc2)c1 (stereo not given) ... inactive
Cc1ccc(CN2CCN(Cc3ccc(OCCO)cc3)CC2CCO)o1 (stereo not given) ... inactive
NNC(=O)c1cnn(-c2ccccc2)c1C(F)(F)F ... active
COc1ccc(NC(=O)c2cccc(NC(=O)c3ccco3)c2)c(OC)c1 ... inactive
Cn1c(SCC(=O)Nc2ccc(Br)cc2F)nnc1-c1ccco1 ... inactive
C=CCOC(=O)c1ccccc1C(=O)OCC=C ... inactive
CC1(C)C2CCC1(C)C(OC(=O)c1ccc(O)cc1)C2 (stereo not given) ... inactive
COc1ccccc1N1CCN(CCCCOc2ccc(F)cc2)CC1 ... active
O=C(NNC(=S)Nc1ccc(Br)cc1Cl)c1ccco1 ... active
COC(=O)c1cc(NC(=O)CN2CCN(C(C)=O)CC2)cc(C(=O)OC)c1 ... inactive
CCOC(=O)C1(CCOc2ccccc2)CCN(C(=O)c2cncs2)CC1 ... inactive
CC1=NNC(=O)C1CCC(=O)N/N=C\c1ccc(Cl)c(Cl)c1 (stereo not given) ... inactive
CNC(=S)N1CCN(c2ccccn2)CC1 ... inactive
COc1ccccc1N1CCN(Cc2ccc(OC)c3ccccc23)CC1 ... inactive
O=C(CSC(=S)N1CCOCC1)c1ccccc1 ... inactive
CCC(=O)NC(=S)Nc1ccc(NC(=O)c2ccco2)c(Cl)c1 ... active
Cn1c(N)c(C(=O)COC(=O)c2cnc(Cl)c(Cl)c2)c(=O)n(C)c1=O ... active
Cc1ccc(N(C(=O)c2sc(C)nc2C)C(C(=O)NC(C)(C)C)c2ccncc2)cc1 (stereo not given) ... inactive
O=C(CSc1nn(-c2ccc(F)cc2)c(=S)s1)NC1CCS(=O)(=O)C1 (stereo not given) ... inactive
COCCNC(=S)N1CCC(NC(=O)C23CC4CC(CC(C4)C2)C3)CC1 ... inactive
O=C(NCc1ccccc1)C1=C[C@@H](c2ccc(C(F)(F)F)cc2)C[C@@H](OCc2ccc(CO)cc2)O1 ... inactive
CC1CCCC(C)N1/N=C/c1ccccc1OC(F)F (stereo not given) ... inactive
CC(C)(C)n1nc2c(c1NC(=O)c1cc3ccccc3o1)CSC2 ... inactive
O=C(CN1CCCCCC1)NCCN1C(=O)S/C(=C\c2ccccc2Cl)C1=O ... inactive
Cc1cc(CNCc2c(C(=O)N(C)Cc3ccccc3)nc3ccccn23)nn1C ... inactive
COC(=O)Cc1c(O)ccn(Cc2cccc(C(F)(F)F)c2)c1=O ... inactive
COc1cc(NC(=O)c2cc([N+](=O)[O-])ccc2Br)ccc1NC(=O)c1ccco1 ... inactive
COc1cc(C(=O)N2CCOCC2)cc(OC)c1OC ... inactive
C/C(=N\NC(=O)NC1CCCCC1)c1ccc(OC(F)F)cc1OC(F)F ... inactive
Cc1nc2ccccn2c1C(=O)NN=C1CCN(C)CC1 ... active
C=CCOC(=O)C1=C[C@@H](c2ccccc2)C[C@@H](OCc2ccc(CO)cc2)O1 ... active

FYI, the data here is from PubChem BioAssay AID1030.
